# study-system: T1, KIR2DL5-Ig fusion protein (KIR2DL5 extracellular domain fused to human IgG1 Fc) (human, UniProt Q8N109 22-240)
# T1 construct: A D0-only fusion (H22-A128) also exists; also called KIR2DL5-human Ig fusion protein; KIR2DL5 DO-D2-Ig; not shown: human IgG1 Fc tag
# T1 sequence (Q8N109 22-240): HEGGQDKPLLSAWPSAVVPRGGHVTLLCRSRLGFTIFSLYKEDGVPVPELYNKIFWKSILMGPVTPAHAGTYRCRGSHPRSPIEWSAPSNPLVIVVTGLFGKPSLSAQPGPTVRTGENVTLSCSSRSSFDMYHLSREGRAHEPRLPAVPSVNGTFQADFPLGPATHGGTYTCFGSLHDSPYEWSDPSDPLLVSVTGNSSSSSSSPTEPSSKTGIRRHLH
# protocol-details: BLI, Octet RED96; KIR2DL5-Ig captured on anti-human Fc biosensors, mAb in solution; global 1:1 fit
For each of the binders below, state its Kd.
Answers are plain numbers, in pM.

binder | measurement-label | obs-value
anti-KIR2DL5 mAb clone B2A18 (antibody, V domains shown, also called B2A18, (IgG1, κ)) VH: QIQLVQSGPEVKKPGETVKISCKASGYTFTKYGMNWVKQAPGKGLKWMGWINTNTGESTYAEDFKGRFAFSLETSANTAFLQINNLKNEDTAAYFCARWGPYGSSLYYGMDYWGQGTSVTVS VL: DIQMTQSSSSFSISLGDRVTITCRASEDLYNRLAWYQQKPGNAPRLLISGATSLETGVPSRFSGSGSGKDFTLSIPSVQTEDVGTYYCQQYRYTPWTFGGGTTLN | Kd | 104

Noted for anti-KIR2DL5 mAb clone B11B4 (antibody, V domains shown, also called B11B4 (IgG2b, κ)) VH: QVQLQQSGGELVKPGASVKMSCKAFGYTFTSFPIEWMKQNHGKSLEWIGNFHPYNDDTKYNEKFNGKAKLTAETSSKTVYLELSRLTSDDCSVYYCARGSDYSFGLDYWGQGTSVTVSS VL: GIVLTQSPASLVVSLGQRATISCRASESVDSYGYSFMHWYQQKPGQPPKLLIYRASNLKSGIPARFSGSGCRTDFTLTINPVEADDVATYYCQQSNEDPWTFGGGTKAGN : its Kd reads 245
